SYSTEM NAME: GST-Nv-NF-kB (Ser allele) (Nematostella vectensis, UniProt A7UNT2 2-411)
Sequence: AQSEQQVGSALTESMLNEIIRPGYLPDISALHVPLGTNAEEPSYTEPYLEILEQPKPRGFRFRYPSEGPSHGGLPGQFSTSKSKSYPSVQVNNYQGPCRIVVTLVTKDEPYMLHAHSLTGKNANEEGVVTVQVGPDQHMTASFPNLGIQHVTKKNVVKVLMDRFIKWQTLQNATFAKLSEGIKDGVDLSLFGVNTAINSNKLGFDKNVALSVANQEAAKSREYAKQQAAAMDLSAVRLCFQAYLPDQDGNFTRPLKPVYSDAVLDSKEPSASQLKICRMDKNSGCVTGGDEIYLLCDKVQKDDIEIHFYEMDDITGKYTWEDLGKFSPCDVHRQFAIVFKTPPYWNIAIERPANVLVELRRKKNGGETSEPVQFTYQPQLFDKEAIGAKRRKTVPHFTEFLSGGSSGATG
PROTOCOL NOTES: protein-binding microarray (PBM); PBM: ~300 nM protein, 6 mM HEPES pH 7.8, 80 mM KCl, 0.5 mM EDTA, 0.5 mM EGTA, 6% glycerol, 35 ng/ul poly-dIdC, 1% milk, 1 h, room temperature; Ap Aiptasia and Nv Nematostella (sea anemones) / Co Capsaspora / Aq Amphimedon (sponge) / Dm Drosophila / Hu human; RHD is the Rel homology domain; high values mean tight binding
CONDITION SET: dsDNA, one strand shown
QUANTITY KIND: binding signal (z-score)
Kindly answer with a numeric value in z-score, unit omitted.

Please review the following examples before continuing.
# MACROMOLECULE SEQUENCE, READOUT UNIT, binding signal
rows = [
    ("CCGATTAACATCACGGGGTTTTCTGATGTTAATCGGGTCTTGATTCGCTTGACGCTGCTG", "z-score", 5.22),
    ("CCGATTAACATCAAGGTAATTCCTGATGTTAATCGGGTCTTGATTCGCTTGACGCTGCTG", "z-score", 3.37),
    ("CCGATTAACATCAAAATTCCACCTGATGTTAATCGGGTCTTGATTCGCTTGACGCTGCTG", "z-score", 3.38),
    ("CCGATTAACATCAGGGGAAGGGATGATGTTAATCGGGTCTTGATTCGCTTGACGCTGCTG", "z-score", 5.77),
    ("CCGATTAACATCAGGGAAAGAACTGATGTTAATCGGGTCTTGATTCGCTTGACGCTGCTG", "z-score", 3.33),
    ("CCGATTAACATCAGGACTCTCCCTGATGTTAATCGGGTCTTGATTCGCTTGACGCTGCTG", "z-score", 2.28),
]

Which measured binding signal value corresponds to CCGATTAACATCACAACACCCCCTGATGTTAATCGGGTCTTGATTCGCTTGACGCTGCTG ?
5.01

binding signal for CCGATTAACATCAGATTTCCCACTGATGTTAATCGGGTCTTGATTCGCTTGACGCTGCTG ?
3.83

For the sequence CCGATTAACATCAAACTTTCCCATGATGTTAATCGGGTCTTGATTCGCTTGACGCTGCTG , what binding signal is on record?
4.64
